# Target Or System: 5-hydroxytryptamine receptor 1A (Homo sapiens, UniProt P08908)
# Sequence (P08908 whole entry): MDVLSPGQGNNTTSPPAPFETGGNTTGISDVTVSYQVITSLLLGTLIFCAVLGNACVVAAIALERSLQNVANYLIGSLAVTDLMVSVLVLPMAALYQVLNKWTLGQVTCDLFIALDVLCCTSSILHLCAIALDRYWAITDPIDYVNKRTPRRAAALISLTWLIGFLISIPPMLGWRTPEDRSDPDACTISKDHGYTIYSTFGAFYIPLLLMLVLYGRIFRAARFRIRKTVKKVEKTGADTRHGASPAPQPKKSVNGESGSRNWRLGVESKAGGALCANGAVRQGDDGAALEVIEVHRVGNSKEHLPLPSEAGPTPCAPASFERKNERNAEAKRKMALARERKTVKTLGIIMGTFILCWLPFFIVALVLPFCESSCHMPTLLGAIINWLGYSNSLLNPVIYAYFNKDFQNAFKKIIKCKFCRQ
# Procedure Summary: Displacement of [3H][…] from human recombinant 5-HT1A receptor expressed in CHO cells measured after 60 to 90 mins by radioligand completion assay relative to control
# Format: cell-based
pKi: −log10 of the molar value.

- Sample Smiles: "C=C[C@H]1CN2CCc3c([nH]c4cccc(OC)c34)[C@@H]2C[C@@H]1/C(=C\\OC)C(=O)OC"
  pKi: 7.14
- Sample Smiles: "C=C[C@H]1CN2CCc3c([nH]c4cccc(O)c34)[C@@H]2C[C@@H]1/C(=C\\OC)C(=O)OC"
  pKi: 7.01
- Sample Smiles: "CC[C@H]1CN2CCc3c([nH]c4cccc(OC)c34)[C@@H]2C[C@@H]1/C(=C\\OC)C(=O)OC"
  pKi: 7.02
- Sample Smiles: "CC[C@@H]1CN2CCc3c([nH]c4cccc(OC)c34)[C@@H]2C[C@@H]1/C(=C\\OC)C(=O)OC"
  pKi: 5.23
- Sample Smiles: "CC[C@H]1CN2CCc3c([nH]c4cccc(O)c34)[C@@H]2C[C@@H]1/C(=C\\OC)C(=O)OC"
  pKi: 6.53

---

# Target Or System: 5-hydroxytryptamine receptor 7 (Homo sapiens)
# Sequence (P34969 whole entry): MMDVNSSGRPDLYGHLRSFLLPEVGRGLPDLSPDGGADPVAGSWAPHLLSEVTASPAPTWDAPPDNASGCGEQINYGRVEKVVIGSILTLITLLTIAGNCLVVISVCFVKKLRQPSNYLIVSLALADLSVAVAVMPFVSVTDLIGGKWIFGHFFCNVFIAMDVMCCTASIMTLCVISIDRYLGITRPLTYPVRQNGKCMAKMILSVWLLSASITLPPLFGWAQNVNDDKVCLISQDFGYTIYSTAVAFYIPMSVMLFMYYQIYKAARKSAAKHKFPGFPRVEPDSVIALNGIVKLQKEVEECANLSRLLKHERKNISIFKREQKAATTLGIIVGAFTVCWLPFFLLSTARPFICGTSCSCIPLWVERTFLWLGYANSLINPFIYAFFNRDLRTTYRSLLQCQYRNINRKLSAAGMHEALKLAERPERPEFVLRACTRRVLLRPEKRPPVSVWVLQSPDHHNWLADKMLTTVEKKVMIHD

- Sample Smiles: "C=C[C@H]1CN2CCc3c([nH]c4cccc(OC)c34)[C@@H]2C[C@@H]1/C(=C\\OC)C(=O)OC"
  Target Or System: "5-hydroxytryptamine receptor 7 (Homo sapiens)"
  Ki (µM): 0.87

---

Below: a set of entries, each annotated with reported Activity.
# Target Or System: UniProt:P28223
# Sequence (P28223 whole entry): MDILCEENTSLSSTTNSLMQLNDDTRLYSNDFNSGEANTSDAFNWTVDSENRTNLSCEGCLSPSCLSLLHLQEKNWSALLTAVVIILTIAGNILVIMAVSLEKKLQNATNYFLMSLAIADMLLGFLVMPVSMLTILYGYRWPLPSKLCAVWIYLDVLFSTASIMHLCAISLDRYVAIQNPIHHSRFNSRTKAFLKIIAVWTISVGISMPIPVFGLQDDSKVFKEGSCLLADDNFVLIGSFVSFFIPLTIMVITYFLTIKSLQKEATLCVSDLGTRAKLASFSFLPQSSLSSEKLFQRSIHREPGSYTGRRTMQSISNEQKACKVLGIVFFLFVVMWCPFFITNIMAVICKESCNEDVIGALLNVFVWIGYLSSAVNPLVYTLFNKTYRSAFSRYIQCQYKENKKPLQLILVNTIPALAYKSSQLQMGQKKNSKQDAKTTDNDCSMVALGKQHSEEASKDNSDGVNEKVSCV
# Procedure Summary: Displacement of [125I](+/-)DOI from human recombinant 5-HT2A receptor expressed in HEK293 cells at 100 nM measured after 60 to 90 mins by radioligand completion assay relative to control
# Format: cell-based
# Assay Conditions: time 60-90 min

- Sample Smiles: "CC[C@@H]1CN2CC[C@@]3(O)C(=Nc4cccc(OC)c43)[C@@H]2C[C@@H]1/C(=C\\OC)C(=O)OC"
  Activity (%): -0.2
- Sample Smiles: "CC[C@H]1CN2CCc3c([nH]c4cccc(OC)c34)[C@@H]2C[C@@H]1/C(=C\\OC)C(=O)OC"
  Activity (%): 2.8
- Sample Smiles: "CC[C@@H]1CN2CCc3c([nH]c4cccc(OC)c34)[C@@H]2C[C@@H]1/C(=C\\OC)C(=O)OC"
  Activity (%): -0.9
- Sample Smiles: "COC(=O)C1=COC[C@H]2CN3CCc4c([nH]c5ccccc45)[C@@H]3C[C@H]12"
  Activity (%): 5.1
- Sample Smiles: "CC[C@@H]1CN2CCc3c([nH]c4cccc(OC)c34)[C@H]2C[C@@H]1/C(=C\\OC)C(=O)OC"
  Activity (%): 1.5

---

Listing: Activity of selected compounds
# Target Or System: 5-hydroxytryptamine receptor 3A (Homo sapiens) (UniProt P46098)
# Sequence (P46098 whole entry): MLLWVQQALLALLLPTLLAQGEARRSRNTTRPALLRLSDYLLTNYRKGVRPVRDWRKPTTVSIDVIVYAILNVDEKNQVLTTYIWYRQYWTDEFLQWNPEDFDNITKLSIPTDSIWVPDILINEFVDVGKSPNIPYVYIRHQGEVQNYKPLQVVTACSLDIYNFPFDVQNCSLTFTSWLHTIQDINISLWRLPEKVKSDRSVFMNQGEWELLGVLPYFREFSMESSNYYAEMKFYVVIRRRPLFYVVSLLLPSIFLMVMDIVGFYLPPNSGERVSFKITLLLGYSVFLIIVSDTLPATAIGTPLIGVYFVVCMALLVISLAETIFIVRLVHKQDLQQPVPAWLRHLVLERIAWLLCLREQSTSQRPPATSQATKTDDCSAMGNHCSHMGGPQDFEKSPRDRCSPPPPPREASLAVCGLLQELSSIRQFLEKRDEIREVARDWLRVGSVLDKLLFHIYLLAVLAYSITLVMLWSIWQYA
# Procedure Summary: Displacement of [3H]BRL43694 from human recombinant 5-HT3 receptor expressed in CHO cells at 100 nM measured after 120 mins by radioligand completion assay relative to control
# Assay type: cell-based
Recorded Endpoint: Activity (%)

- Sample Smiles: "CC[C@@H]1CN2CCc3c([nH]c4cccc(OC)c34)[C@H]2C[C@@H]1/C(=C\\OC)C(=O)OC"
  Val: 11.1
- Sample Smiles: "CC[C@H]1CN2CCc3c([nH]c4cccc(OC)c34)[C@@H]2C[C@@H]1/C(=C\\OC)C(=O)OC"
  Val: 11.3
- Sample Smiles: "COC(=O)C1=COC[C@H]2CN3CCc4c([nH]c5ccccc45)[C@@H]3C[C@H]12"
  Val: -2.5
- Sample Smiles: "CC[C@@H]1CN2CCc3c([nH]c4cccc(OC)c34)[C@@H]2C[C@@H]1/C(=C\\OC)C(=O)OC"
  Val: -9.1
- Sample Smiles: "CC[C@@H]1CN2CC[C@@]3(O)C(=Nc4cccc(OC)c43)[C@@H]2C[C@@H]1/C(=C\\OC)C(=O)OC"
  Val: 8.2
